System: DU-145 prostate
protocol text: NCI-60 one-dose screen, 48 h
particulars: 10 µM unless noted
About 83,000 compounds went through this panel and 20% of them were active in at least one assay; those are over-represented in the sample as a whole. Active and inactive are the calls of the source. Rule for the calls: active = growth percent below 10; inactive = the rest.
Labels: 1.0 = active, 0.0 = inactive

• O=C(COc1ccc(NC(=O)Nc2ccc(Cl)c(Cl)c2)cc1)N=Nc1c(O)[nH]c2ccccc12 = 1.0
• Cc1ccc(C2=NN(c3nc(-c4cc5ccccc5oc4=O)cs3)C(c3ccc(C)cc3)C2)cc1 (configuration not stated) = 0.0
• Cc1cc2nc3c([nH]c2cc1C)c1ccc(=O)cc1n3CCN(C)C = 0.0
• CCCn1cc(-c2nc(Nc3ccc(C(=O)NCCCCNc4cccc5c4C(=O)N(C4CCC(=O)NC4=O)C5=O)cc3)nc3[nH]ccc23)cn1 (configuration not stated) = 0.0
• N/C(=N\c1nc2ccccc2s1)NC(=O)Nc1ccc(Cl)cc1Cl = 1.0
• CCCCSc1nc(Nc2ccc(S(N)(=O)=O)cc2)c(C#N)c(-c2cc(OC)c(OC)c(OC)c2)n1 = 0.0
• COc1cccc(/C=C/c2nc3ccccc3c(=O)n2CC(=O)Nc2ccc(Cl)cc2)c1 = 0.0
• O=C(COc1ccc(NC(=O)Nc2ccc(Cl)c(Cl)c2)cc1)N=Nc1c(O)[nH]c2ccc([N+](=O)[O-])cc12 = 0.0
• O=C(NNc1nc2cc(C(F)(F)F)ccc2n2cccc12)c1cnccn1 = 1.0
• N/N=C(\N)c1c(N)nc(=S)[nH]c1-c1ccc(Cl)cc1Cl = 0.0
• NS(=O)(=O)c1ccc(-n2cc(-c3cccc(NC(=O)c4cc(C(F)(F)F)cc(C(F)(F)F)c4)c3)nn2)cc1 = 0.0
• O=C(Cn1c(/C=C/c2ccccc2)nc2ccccc2c1=O)Nc1ccccc1 = 0.0
• Cn1cc(-c2cc(N)n3nc(-c4cn(C)c5ccc(Cl)cc45)cc3n2)c2ccccc21 = 0.0
• COc1cc2oc(-c3cccc(NC(=O)[C@H](Cc4ccccc4)NC(=O)OC(C)(C)C)c3)cc(=O)c2c(OC)c1OC = 0.0
• NS(=O)(=O)c1ccc(-n2cc(-c3cccc(NC(=O)c4ccc(Cl)c(C(F)(F)F)c4)c3)nn2)cc1 = 0.0
• C/C(=N\Nc1ccc(S(N)(=O)=O)cc1)c1ccc(N=Nc2c(Nc3ccccc3)[nH][nH]c2=O)cc1 = 0.0
• C[C@H]1CN(C(=O)c2ccc3c(NNC(=O)c4ccncn4)nc4cc(F)c(F)cc4n23)CCN1 = 0.0
• COc1ccc2c(c1)C(=N/N=C(\C)c1ccc(OC)c(S(N)(=O)=O)c1)C(=O)N2 = 0.0
• CCOC(=O)/C=C/c1cccc2c1C(=O)NC(C)(c1cc3cc(Br)ccc3oc1=O)N2 (configuration not stated) = 0.0
• COc1ccc(C(=O)Nc2n[nH]c(Nc3ccccc3)c2C#N)cc1 = 0.0
• Cn1cc(NC(=O)c2cc(NC(=O)c3ccc(/C=C/c4ccccc4)cc3)cn2C)cc1C(=O)NCCCN1CCOCC1 = 0.0
• CC(C)CCNC(=O)N/C(N)=N/c1nc2ccccc2s1 = 0.0
• N/C(=N\N=C\c1ccc([N+](=O)[O-])cc1)c1c(N)nc(=S)[nH]c1-c1ccc(Cl)cc1Cl = 0.0
• O=C1c2c(c3c4cc(F)ccc4oc3c3[nH]c4ccc(Br)cc4c23)C(=O)N1O = 0.0
• N#Cc1c(-c2cccnc2)cc(-c2ccc3ccccc3c2)[nH]c1=O = 0.0
• COc1ccc2[nH]cc(-c3nc(N)nnc3-c3cn(C)c4ncccc34)c2c1 = 0.0
• COc1ccc(/C=C/c2n(Cc3ccc4ccccc4c3)c3ccccc3[n+]2Cc2ccc3ccccc3c2)cc1 = 1.0
• CCOC(=O)c1ccc(Nc2nc(NN)nc(-c3ccc(F)cc3)c2C#N)cc1 = 0.0
• COc1ccc(-c2nc(SC(C)C)nc(NCCc3c[nH]c4ccccc34)c2C#N)cc1 = 0.0
• CC12CC[C@@H]3[C@]4(C)COC(c5cn[nH]c5-c5cccc(Cl)c5)O[C@@H]4CC[C@@]3(C)[C@@H]1CC(C1=CCOC1=O)O2 (some centres not stated) = 0.0
• Cc1c(C(=O)NNC(=O)c2ccc(Cl)cc2)nnn1-c1ccc(Cl)cc1 = 0.0
• CNC(=O)c1cccc(NC(=O)c2ccc3c(c2)nnn3/C(C#N)=C/c2ccccn2)c1 = 0.0
• O=C(/C=C/c1cccc(OCc2ccccc2)c1)c1nc2ccccc2[nH]1 = 0.0
• COc1cc2oc(-c3cccc(C(=O)Nc4ccc(Cl)cc4)c3)cc(=O)c2c(OCCNC(=O)[C@H](CO)NC(=O)OC(C)(C)C)c1OC = 0.0
• COc1ccc2[nH]c(O)c(N=NC(=O)COc3ccc(NC(=O)Nc4ccccc4)cc3)c2c1 = 0.0
• CCOc1ccc(C(=O)NC(=S)Nc2ccc(S(N)(=O)=O)cc2)cc1 = 0.0
• COc1ccc(C(=O)/C=C/c2cccc3ccccc23)cc1S(N)(=O)=O = 0.0

---

Tested on: NCI-H23 lung
protocol text: NCI-60 one-dose screen, 48 h (100 = growth as untreated, 0 = no growth, -100 = all killed)
particulars: 10 µM unless noted
This is part of a sample that, as a whole, favours compounds with a hit. Of some 83,000 tested, about 20% had one in any assay.
measured metric: growth (%)

* COc1ccccc1C(=O)NN1C(=O)/C(=C/C2=Cc3ccccc3OC2)SC1=S | 106
* Cc1ccc([C@H]2C(C(=O)c3ccc(Cl)cc3)C3(N[C@@H]2c2ccccc2)C(=O)Nc2ccc(Cl)cc23)cc1 (stereo partly drawn) | 52.8
* COc1ccc(C2CC(c3ccc(S(=O)(=O)NCCNc4nc(Nc5ccc(F)cc5)nc(N(C)C)n4)cc3)=Nc3c(N)nc(N)nc3N2)cc1 (stereo not drawn) | 90.4
* CCCCCCCCc1ccc(C(=O)Nc2cccc(P(=O)(O)O)c2)cc1 | 96.7
* O=C(C1=CNC(=S)NC1c1ccc(O)cc1)c1cc2ccccc2oc1=O (stereo not drawn) | 102
* O=C(NNc1nc2cc(F)ccc2n2c(C(=O)N3CCN(C4CC4)CC3)ccc12)c1ncccn1 | 38.4
* C/C(=N\N=C1/C(=O)Nc2ccccc21)c1ccc2c(c1)Nc1ccccc1S2 | 34.8
* N#Cc1c(-c2cccc3ccccc23)cc(-c2cccc(OCC(=O)O)c2)[nH]c1=O | 97.7
* COc1cc2c(c(OC)c1OC)C(=O)CC(c1cccc(NC(=O)c3cc(NC(=O)[C@H](CO)NC(=O)OC(C)(C)C)ccc3Cl)c1)O2 (stereo partly drawn) | 37.3
* COc1cc(C2CC(c3cc(OC)c(OC)c(OC)c3)=Nc3c(N)nc(N)nc3N2)ccc1Oc1nc(NCCO)nc(N2CCOCC2)n1 (stereo not drawn) | 95.8
* O=C(N/N=C/c1ccc(-c2ccc(O)cc2)s1)c1[nH]c2ccc(Br)cc2c1-c1ccccc1 | 7.67
* C/C(=N\N=C1/C(=O)Nc2ccc(Cl)cc21)c1ccc2c(c1)Nc1ccccc1S2 | -28.2
* COc1ccc(-c2c(Nn3cnnn3)no[n+]2[O-])cc1 | 58.9
* Cc1ccc(NCC(=O)Cn2cc(COc3ccc(C=Nc4cnc5ccccc5c4)cc3)nn2)cc1 | 109
* COc1ccc2oc3c4[nH]c5ccccc5c4c4c(c3c2c1)C(=O)N(C(=O)OC(C)(C)C)C4=O | -19.9
* O=C(Cn1c(/C=C/c2ccccc2)nc2ccccc2c1=O)Nc1ccccc1 | 90.2
* O=C(NN1C(=O)/C(=C/C=C/c2ccc([N+](=O)[O-])o2)SC1=S)c1ccc(Cl)cc1 | -86.7
* Cc1nc(Nc2ncc(C(=O)Nc3c(C)cccc3Cl)s2)cc(N2CCN(CCCNC(=O)COc3ccc(C4CCC(=O)NC4=O)cc3)CC2)n1 (stereo not drawn) | 68.8

---

Tested on: HCC-2998 colon
protocol text: NCI-60 one-dose screen, 48 h
particulars: 10 µM unless noted
Compounds without any hit were thinned out: in the full panel of roughly 83,000, 20% have a hit. Active and inactive are the calls of the source. How the source made its calls: active means growth percent below 10; inactive means the rest.
Labels: active, inactive

- Cc1cccc(-c2nc(Nc3ccc(C)c(S(N)(=O)=O)c3)c3ccccc3n2)c1: active
- O=C(/C=C/c1cccc(OCc2ccc(F)cc2)c1)c1nc2ccccc2[nH]1: inactive
- O=C(c1ccc(OCCN2CCOCC2)cc1)C1[C@H](c2ccc(Cl)cc2)[C@@H](c2ccccc2)NC12C(=O)Nc1ccc(Br)cc12 (stereo not given in full): active
- COc1ccc2[nH]cc(-c3nnc(N)nc3-c3c[nH]c4ncc(Br)cc34)c2c1: inactive
- N/C(=N\c1nc2ccccc2s1)NC(=O)NCCCCCCO: inactive

---

Test system: NCI-H522 lung
protocol text: NCI-60 one-dose screen, 48 h
particulars: 10 µM unless noted
This is part of a sample that, as a whole, favours compounds with a hit. Of some 83,000 tested, about 20% had one in any assay. Active and inactive are the calls of the source. Rule for the calls: active = growth percent below 10; inactive = the rest.
Labels: y (active), n (inactive)

• CCOC(=O)C1=C(N)N(c2ccccc2)C2=C(C(=O)CC(C)(C)C2)C1c1ccc([N+](=O)[O-])cc1 (stereo not drawn) = n
• COc1ccc2c(c1)c(-c1cc3nc(-c4cn(C)c5ncc(Br)cc45)cc(N)n3n1)cn2C = y
• COc1cccc(-c2c(C#N)c(-c3ccc(Cl)cc3)nc3n[nH]c(-c4ccc(Cl)cc4)c23)c1 = n
• COc1ccc(C(=O)/C=C/c2cccc(Cl)c2)cc1S(N)(=O)=O = y
• C=C1CC[C@@H]2[C@]3(C)COC(c4cn[nH]c4-c4cccc(Br)c4)O[C@@H]3CC[C@@]2(C)[C@@H]1C/C=C1/C(=O)OCC1O (stereo partly drawn) = y
• CSc1ccccc1NC(=O)c1ccc2nnn(/C(C#N)=C/c3ccccn3)c2c1 = y
• C=C1CC[C@@H]2[C@]3(C)COC(c4cn[nH]c4-c4ccc(Br)cc4)O[C@@H]3CC[C@@]2(C)[C@@H]1C/C=C1/C(=O)OCC1O (stereo partly drawn) = y
• CNC(=O)c1cccc(NC(=O)c2ccc3c(c2)nnn3/C(C#N)=C/c2ccccn2)c1 = y
